Measured on: ERK1 (Homo sapiens)
Sequence (P27361 whole entry): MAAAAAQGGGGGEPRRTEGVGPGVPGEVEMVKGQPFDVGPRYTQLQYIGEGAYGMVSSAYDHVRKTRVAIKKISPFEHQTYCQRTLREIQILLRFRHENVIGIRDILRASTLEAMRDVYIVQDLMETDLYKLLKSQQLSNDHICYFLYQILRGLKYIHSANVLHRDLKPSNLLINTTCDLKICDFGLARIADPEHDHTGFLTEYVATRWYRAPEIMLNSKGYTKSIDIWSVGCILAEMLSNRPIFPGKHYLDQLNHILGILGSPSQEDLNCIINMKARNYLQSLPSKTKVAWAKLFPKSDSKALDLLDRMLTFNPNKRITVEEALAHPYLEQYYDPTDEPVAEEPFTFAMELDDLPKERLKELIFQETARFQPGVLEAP
Assay text: Kinase profiling (radiometric filter-binding)
Type: biochemical
Measurement setup: ERK1, 1 µM inhibitor; read-out: Residual activity, %
Square brackets hold non-standard residues; d marks the D form. Peptide text beside a SMILES is read from it. * marks the point of attachment. X3 = O=C(CCCCCNCc1nc2c(sc3cc(Br)cnc32)c(=O)[nH]1)*
# remaining activity at 1 µM values compiled below
The response must be a number in % with no trailing unit.

Consider the reported remaining activity at 1 µM for these compounds:
| Compound | remaining activity at 1 µM [%] |
| --- | --- |
| N=C(N)NCCC[C@@H](NC(=O)CCCCCNCc1nc2c(sc3cc(Br)cnc32)c(=O)[nH]1)C(=O)N[C@H](CCCNC(=N)N)C(=O)N[C@H](CCCNC(=N)N)C(=O)N[C@H](CCCNC(=N)N)C(=O)N[C@H](CCCNC(=N)N)C(=O)N[C@H](CCCNC(=N)N)C(=O)N[C@H](CCCCN)C(N)=O [ARC-3126, BPTP-Ahx-(D-Arg)6-D-Lys-NH2] (X3-[dR][dR][dR][dR][dR][dR][dK]-NH2) | 84 |
| N=C(N)NCCC[C@@H](NC(=O)CNC(=O)[C@@H](CCCNC(=N)N)NC(=O)[C@@H](CCCNC(=N)N)NC(=O)CCCCCCCNCc1nc2c(sc3cc(Br)cnc32)c(=O)[nH]1)C(=O)N[C@H](CCCCN)C(N)=O [Compound 1, BPTP-Aoc-(D-Arg)2-Gly-D-Arg-D-Lys-NH2] | 119 |

Problem: Fill in the recorded remaining activity at 1 µM for this compound, with ERK1 (Homo sapiens) as test system: N=C(N)NCCC[C@@H](NC(=O)CCCCCNC(=O)Cn1cnc2c(I)c(I)c(I)c(I)c21)C(=O)N[C@H](CCCNC(=N)N)C(=O)N[C@H](CCCNC(=N)N)C(=O)N[C@H](CCCNC(=N)N)C(=O)N[C@H](CCCNC(=N)N)C(=O)N[C@H](CCCNC(=N)N)C(=O)N[C@H](CCCCN)C(N)=O [ARC-3125, TIBI-CH2-C(=O)-Ahx-(D-Arg)6-D-Lys-NH2]
Solution: 89

Problem: Fill in the recorded remaining activity at 1 µM for this compound, with ERK1 (Homo sapiens) as test system: N=C(N)NCCC[C@@H](NC(=O)CNC(=O)[C@@H](CCCNC(=N)N)NC(=O)[C@@H](CCCNC(=N)N)NC(=O)CCCCCCCNCc1nc2c(sc3ccc(Br)cc32)c(=O)[nH]1)C(=O)N[C@H](CCCCN)C(N)=O [Compound 2, BBTP-Aoc-(D-Arg)2-Gly-D-Arg-D-Lys-NH2]
Solution: 125

Problem: Fill in the recorded remaining activity at 1 µM for this compound, with ERK1 (Homo sapiens) as test system: N=C(N)NCCC[C@@H](NC(=O)CNC(=O)[C@@H](CCCNC(=N)N)NC(=O)[C@@H](CCCNC(=N)N)NC(=O)Cn1cc(CNCc2nc3c(sc4ccc(Br)cc43)c(=O)[nH]2)nn1)C(=O)N[C@H](CCCCN)C(N)=O [Compound 3, BBTP-Amt-(D-Arg)2-Gly-D-Arg-D-Lys-NH2]
Solution: 107

---

Measured on: TBK1 (Homo sapiens, UniProt Q9UHD2)
Sequence (Q9UHD2 1-729): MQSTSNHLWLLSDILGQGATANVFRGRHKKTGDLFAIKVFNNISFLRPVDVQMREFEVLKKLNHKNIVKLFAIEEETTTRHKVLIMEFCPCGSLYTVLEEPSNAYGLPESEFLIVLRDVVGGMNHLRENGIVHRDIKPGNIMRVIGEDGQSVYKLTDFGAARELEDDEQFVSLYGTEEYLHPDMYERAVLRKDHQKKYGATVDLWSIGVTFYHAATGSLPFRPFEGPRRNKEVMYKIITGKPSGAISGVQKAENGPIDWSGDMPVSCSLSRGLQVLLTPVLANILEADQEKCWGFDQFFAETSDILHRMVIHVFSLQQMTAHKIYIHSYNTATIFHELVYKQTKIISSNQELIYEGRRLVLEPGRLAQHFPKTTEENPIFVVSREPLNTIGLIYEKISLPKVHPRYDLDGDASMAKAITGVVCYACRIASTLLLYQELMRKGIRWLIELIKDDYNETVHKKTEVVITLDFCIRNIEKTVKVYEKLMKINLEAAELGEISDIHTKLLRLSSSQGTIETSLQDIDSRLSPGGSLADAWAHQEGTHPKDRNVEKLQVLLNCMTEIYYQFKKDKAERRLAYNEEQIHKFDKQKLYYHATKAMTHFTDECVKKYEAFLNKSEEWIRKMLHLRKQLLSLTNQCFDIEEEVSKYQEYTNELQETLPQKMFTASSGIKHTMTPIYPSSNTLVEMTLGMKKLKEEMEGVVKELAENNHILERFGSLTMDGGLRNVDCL
Assay text: Kinase profiling (radiometric filter-binding)
Format: biochemical
Measurement setup: TBK1, 1 µM inhibitor; read-out: Residual activity, %
Endpoint: remaining activity at 1 µM (%)
The response must be a number in % with no trailing unit.

Problem: Which remaining activity at 1 µM value belongs to N=C(N)NCCC[C@@H](NC(=O)CNC(=O)[C@@H](CCCNC(=N)N)NC(=O)[C@@H](CCCNC(=N)N)NC(=O)CCCCCCCNCc1nc2c(sc3ccc(Br)cc32)c(=O)[nH]1)C(=O)N[C@H](CCCCN)C(N)=O [Compound 2, BBTP-Aoc-(D-Arg)2-Gly-D-Arg-D-Lys-NH2] ?
Solution: 113

Entry source: paper PMC8307404
